Please go through the items and note down their solubility at 3 h.
Assay: Solubility of each salt of T-3811 in distilled water
Assay type: physicochemical
Conditions: thermodynamic from solid; about 50 mg salt in 2 ml distilled water, ultrasonic wave irradiation in cold water 3 hours, 0.45-μm filtrate, T-3811 content by liquid chromatography; read-out: Solubility
Protocol: This sample solution is exposed to ultrasonic wave irradiation 5 (SOLID STATE 1,200, Cho-onpa Kogyo) in cold water for 3 hours and then filtered through a filter with a pore size of 0.45-μm (MILLEX-HV13, MILLIPORE).
Give the quantity in µg/mL, number only.

Q: Quick one: give measured solubility at 3 h for C[C@H]1NCc2cc(-c3ccc4c(=O)c(C(=O)O)cn(C5CC5)c4c3OC(F)F)ccc21.O=C(O)CC(O)(CC(=O)O)C(=O)O [Citrate]
A: 420

Q: Input C[C@H]1NCc2cc(-c3ccc4c(=O)c(C(=O)O)cn(C5CC5)c4c3OC(F)F)ccc21.O=P(O)(O)O [Phosphate] , output reported solubility at 3 h.
A: 8520

Q: // Input: C[C@H]1NCc2cc(-c3ccc4c(=O)c(C(=O)[O-])cn(C5CC5)c4c3OC(F)F)ccc21.[Na+] [Sodium salt] . Output its solubility at 3 h only.
A: 2340

Q: Please report solubility at 3 h for the following compound: C[C@H]1NCc2cc(-c3ccc4c(=O)c(C(=O)O)cn(C5CC5)c4c3OC(F)F)ccc21.O=S(=O)(O)O [Sulfate]
A: 1170

Q: Input C[C@H](O)C(=O)O.C[C@H]1NCc2cc(-c3ccc4c(=O)c(C(=O)O)cn(C5CC5)c4c3OC(F)F)ccc21 [L-lactate] , output reported solubility at 3 h.
A: 1980

Q: Give recorded solubility at 3 h. CS(=O)(=O)O.C[C@H]1NCc2cc(-c3ccc4c(=O)c(C(=O)O)cn(C5CC5)c4c3OC(F)F)ccc21 [Methanesulfonate]
A: 16500
